The reported numbers originate from patent US20240417482A1.

# Tested On: T1, human 4-1BB-His protein (human, UniProt Q07011 24-186)
# T1 construct: Recombinant His-tagged protein; also called human 4-1BB-his tag; recombinant 4-1BB protein; not shown: His tag
# Experiment: SPR, Biacore T200, antibody captured on Protein A chip, human 4-1BB-His as analyte
Could you mark each record t if its Kd falls strictly under 10 nM, and f if it equals or exceeds it?

# Binder, Qualitative Label
data = [
    ("B31-V4 humanized antibody (VHH, Humanized VHH captured on a Protein A chip; also called B31 VHH-V4) VHH: QVQLVESGGGLVQPGGSLRLSCAASGDIFSIMFWYRQAPGKQREYVAHITSNGRTNYADSVTGRFTISRDNSKNTMYLQMDSLRAEDTAVYYCAADDATNTRTYWGQGTLVTVSS", "t"),
    ("B125-V2 humanized antibody (VHH, Humanized VHH; also called B125 VHH-V2) VHH: EVQLVESGGGLVQPGGSLRLSCAASGFAFSDYAIGWFRQAPGKEREGVSCISSSDGSTYYADSVKGRFTISRDNSKNTLYLQMNSLRAEDTAVYYCATDTTTRCPIWSYYVESDYWGQGTLVTVSS", "f"),
    ("B31-V5 humanized antibody (VHH, Humanized VHH captured on a Protein A chip; also called B31 VHH-V5) VHH: QVQLVESGGGLVQPGGSLRLSCAASGDIFSIMFWYRQPQGKQREYVAHITSNGRTNYADSVTGRFTISRDNNKNTLYLQMDSLRAEDTAVYYCAADDATNTRTYWGQGTLVTVSS", "t"),
    ("B16-V2 humanized antibody (VHH, Humanized VHH; also called B16 VHH-V2) VHH: EVQLVESGGGLVQPGGSLRLSCAASGFTFSYYAIGWFRQAPGKEREGVSCISSSDGSTYYADSVKGRFTISRDNSKNTLYLQMNSLRAEDTAVYYCATDTTTRCPIWSYYVESDYWGQGTLVTVSS", "f"),
    ("B210-V3 humanized antibody (VHH, Humanized VHH; also called B210 VHH-V3) VHH: EVQLVESGGGLVQPGGSLRLSCAASGLTFSYYAIGWFRQAPGKEREGVSCISSSGRSTNYADSVKGRFTISRDNSKNTLYLQMNSLRAEDTAVYYCATDTTTRCPIWSNYVESDYWGQGTLVTVSS", "f"),
    ("B31-V6 humanized antibody (VHH, Humanized VHH captured on a Protein A chip; also called B31 VHH-V6) VHH: QVQLVESGGGLVQPGGSLRLSCSASGDIFSIMFWYRQAPGKQREYVAHITSNGRTNYADSVTGRFTISRDNSKNTLYLQMNSLRAEDTAVYYCARDDATNTRTYWGQGTLVTVSS", "t"),
    ("B31-V2 humanized antibody (VHH, Humanized VHH expressed in 293F cells and captured on a Protein A chip; also called B31 VHH-V2) VHH: QVQLVESGGGLVQPGGSLRLSCSASGDIFSIMFWYRQAPGKQREYVSHITSNGRTNYADSVTGRFTISRDNSKNTLYLQMNSLRAEDTAVYYCAADDATNTRTYWGQGTLVTVSS", "f"),
    ("B210-V2 humanized antibody (VHH, Humanized VHH; also called B210 VHH-V2) VHH: EVQLVESGGGLVQPGGSLRLSCAASGFTFSYYAIGWFRQAPGKEREGVSCISSSGRSTNYADSVKGRFTISRDNSKNTLYLQMNSLRAEDTAVYYCATDTTTRCPIWSNYVESDYWGQGTLVTVSS", "f"),
    ("B31-V3 humanized antibody (VHH, Humanized VHH captured on a Protein A chip; also called B31 VHH-V3) VHH: QVQLVESGGGLVQPGGSLRLSCAASGDIFSIMFWYRQAPGKQREYVAHITSNGRTNYADSVTGRFTISRDNNKNTLYLQMNSLRAEDTAVYYCAADDATNTRTYWGQGTLVTVSS", "f"),
]
